Target system: Recombinant ROCK1 (amino acids 1-477) (Homo sapiens, UniProt Q13464)
Construct: Recombinant ROCK1 (amino acids 1-477)
Sequence (Q13464 1-477): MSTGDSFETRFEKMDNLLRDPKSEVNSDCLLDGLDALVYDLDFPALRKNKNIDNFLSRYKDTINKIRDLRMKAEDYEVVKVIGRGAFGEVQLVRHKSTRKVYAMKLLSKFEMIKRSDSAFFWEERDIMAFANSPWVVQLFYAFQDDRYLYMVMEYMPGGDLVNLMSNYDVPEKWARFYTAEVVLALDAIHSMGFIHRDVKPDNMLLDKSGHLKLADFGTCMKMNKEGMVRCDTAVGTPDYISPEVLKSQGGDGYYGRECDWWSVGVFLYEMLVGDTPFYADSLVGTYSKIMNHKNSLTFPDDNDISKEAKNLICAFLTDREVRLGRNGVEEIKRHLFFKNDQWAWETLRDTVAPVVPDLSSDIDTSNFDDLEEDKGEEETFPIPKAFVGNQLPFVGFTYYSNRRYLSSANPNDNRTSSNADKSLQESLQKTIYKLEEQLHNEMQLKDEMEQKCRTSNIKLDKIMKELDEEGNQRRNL
Run description: ROCK inhibition assay, LANCE Ultra TR-FRET (ROCK1)
Measurement context: 1 mM of ATP
pIC50: −log10 of the molar value.
pIC50 values, listed per item

Before answering, review these 4 worked examples.
Data request: Using the record for COc1ccc2c(c1)CC(C(=O)c1cn(C[C@H]3CCN3)c3cc(-c4cn[nH]c4OC)ccc13)CO2 (stereo partly shown) , report its pIC50.
Data returned: 6.30 to 6.70

Data request: Try O=C(c1cn(C[C@H]2CCN2)c2cc(-c3cn[nH]c3Cl)ccc12)C1COc2ccc(Cl)cc2C1 (stereo partly shown) next.
Data returned: < 6.30

Data request: Try CN(C)CCn1cc(C(=O)C2COc3ccc(F)cc3O2)c2ccc(-c3c[nH]nc3Cl)cc21 (stereo not shown) next.
Data returned: < 6.30

Data request: Try CN1CC(Cn2cc(C(=O)C3COc4ccc(Cl)cc4C3)c3ccc(-c4cn[nH]c4F)cc32)C1 (stereo not shown) next.
Data returned: 6.70 to 7.68

---
Data request: Using the record for COc1[nH]ncc1-c1ccc2c(C(=O)C3COc4ccc(Cl)cc4C3)cn(CC3CN(C)C3)c2c1 (stereo not shown) , report its pIC50.
Data returned: < 6.30

Data request: Try COc1ccc2c(c1)CC(C(=O)c1nn(CCN(C)C)c3cc(-c4c[nH]nc4Cl)ccc13)CO2 (stereo not shown) next.
Data returned: 6.70 to 7.68

Data request: Try C[C@H](Cn1cc(C(=O)C2COc3ccc(Cl)cc3C2)c2ccc(-c3cn[nH]c3F)cc21)N(C)C (stereo partly shown) next.
Data returned: < 6.30

---

IC50 values, listed per item
Target system: Recombinant ROCK1 (amino acids 1-477) (Homo sapiens)
Construct: Recombinant ROCK1 (amino acids 1-477)
Run description: ROCK inhibition assay, LANCE Ultra TR-FRET (ROCK1)
Measurement context: 1 mM of ATP

Before answering, review these 3 worked examples.
Data request: Using the record for O=C(c1cn(CCN2CCC2)c2nc(-c3c[nH]nc3Cl)ccc12)C1COc2ccc(F)cc2C1 (stereo not shown) , report its IC50.
Data returned: > 501 nM

Data request: Try CNCCn1cc(C(=O)C2COc3ccc(OC)cc3C2)c2ccc(-c3cn[nH]c3Cl)cc21 (stereo not shown) next.
Data returned: > 501 nM

Data request: Try CN(C)CCn1cc(C(=O)C2COc3ccc(Cl)cc3C2)c2ccc(-c3ccnn3C)cc21 (stereo not shown) next.
Data returned: > 501 nM

Attention now turns to another entry.
Data request: Using the record for CCN(C)CCn1cc(C(=O)[C@@H]2COc3ccc(OC)cc3C2)c2ccc(-c3cn[nH]c3Cl)cc21 [Compound 3-26] , report its IC50.
Data returned: > 501 nM

---

Target system: Recombinant ROCK1 (amino acids 1-477) (Homo sapiens)
Construct: Recombinant ROCK1 (amino acids 1-477)
Run description: ROCK inhibition assay, LANCE Ultra TR-FRET (ROCK1)
Measurement context: 1 mM of ATP
Quantity name: IC50

Before answering, review these 3 worked examples.
Data request: Using the record for CN1CCCC1Cn1cc(C(=O)C2COc3ccc(Cl)cc3C2)c2ccc(-c3cn[nH]c3Cl)cc21 (stereo not shown) [Compound 1-20] , report its IC50.
Data returned: > 501 nM

Data request: Try COc1ccc2c(c1)CC(C(=O)c1cn(C[C@@H]3CCN3)c3cc(-c4cn[nH]c4Cl)ccc13)CO2 (stereo partly shown) [Compound 1-36] next.
Data returned: 201 to 500 nM

Data request: Try NC1(Cn2cc(C(=O)C3COc4ccc(Cl)cc4C3)c3ccc(-c4cn[nH]c4Cl)cc32)CC1 (stereo not shown) [Compound 4-2] next.
Data returned: < 20 nM

Attention now turns to another entry.
Data request: Using the record for CN(C)CCn1cc(C(=O)C2COc3ccc(F)cc3C2)c2ccc(-c3c[nH]nc3Cl)nc21 (stereo not shown) [Compound 1-10] , report its IC50.
Data returned: > 501 nM

Numbers sourced from patent US20240360139A1.
